assay: chemical genetic growth profiling, strain panel (AID 1159580);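 also: tested at 20 µM; growth read once vehicle control cultures reached saturation at 30 °C; 1 = growth at the plate median or of vehicle wells; lower values mean less growth of the strain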; details: S. cerevisiae deletion strains, growth OD, locus YDL040C, strain nat1, hits give low values
Screen size: about 5,500 compounds; about 2,000 (36%) were called active. Inconclusive results (about 18%) are left out. The list shows a part of the results.

compound	normalized growth
C[C@@H](N)CO	0.976
CC(=O)O[C@]1(C(C)=O)CCC2C3C=C(C)C4=CC(=O)CCC4(C)C3CCC21C (some centres undefined)	0.968
CNc1ccccc1C(=O)N1CCc2c([nH]c3ccccc23)C1=O	0.99
CC1(C)C2CC[C@]3(C)C(C(=O)C=C4[C@H]5C[C@@](C)(C(=O)O)CC[C@]5(C)CC[C@]43C)[C@@]2(C)CC[C@@H]1O (some centres undefined)	0.995
COc1ccc([C@@H]2CC(=O)c3c(O)cc(O)cc3O2)cc1O	0.986
COc1cccc([C@]2(O)CCCC[C@H]2CN(C)C)c1	0.978
CC1(C)C2CC[C@]3(C)C(C(=O)C=C4[C@@H]5C[C@@](C)(C(=O)O)CC[C@]5(C)CC[C@]43C)[C@@]2(C)CC[C@@H]1O (some centres undefined)	1.03
O=C1C[C@@H](c2ccc(O)cc2)Oc2cc(O)cc(O)c21	0.976
C1CCc2nnnn2CC1	1
CC(=O)O[C@@](C)(CCC=C(C)C)C1CC=C(C)CC1 (some centres undefined)	0.988
CC(=O)OCC(CCn1cnc2cnc(N)nc21)COC(C)=O	0.993
O=C1CC(c2ccc(O)c(O)c2)Oc2cc(O)cc(O)c21 (centres undefined)	1.01
CCCCOc1ccc(CC(=O)NO)cc1	0.998
CC(=O)O[C@H]1C(=O)[C@@]2(C)C([C@H](OC(=O)c3ccccc3)[C@]3(O)C[C@H](O)C(C)=C1C3(C)C)[C@]1(OC(C)=O)CO[C@@H]1C[C@@H]2O (some centres undefined)	0.999
